target_or_system: hLPAR1 (human lysophosphatidic acid receptor 1) (Homo sapiens, UniProt Q92633)
Sequence (Q92633 whole entry): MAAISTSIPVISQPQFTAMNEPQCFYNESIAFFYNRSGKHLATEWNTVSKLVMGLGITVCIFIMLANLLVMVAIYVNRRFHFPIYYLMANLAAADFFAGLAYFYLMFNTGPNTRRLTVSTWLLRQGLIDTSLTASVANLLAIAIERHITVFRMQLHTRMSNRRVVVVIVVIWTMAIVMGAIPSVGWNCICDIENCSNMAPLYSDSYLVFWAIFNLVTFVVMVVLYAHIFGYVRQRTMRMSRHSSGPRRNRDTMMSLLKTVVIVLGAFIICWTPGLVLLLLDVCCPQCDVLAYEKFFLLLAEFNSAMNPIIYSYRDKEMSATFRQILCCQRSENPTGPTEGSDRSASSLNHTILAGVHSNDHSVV
procedure_summary: FLIPR assay of intracellular calcium increase induced by activation of hLPAR1 expressed in CHO-K1 cells
Type: cell-based
test_conditions: CHO-K1 cells expressing hLPAR1, agonist oleoyl-L-α-lysophosphatidic acid 1 μM; read-out: LPAR1 IC50
pIC50: −log10 of the molar value.
The entries below are paired with their reported pIC50.

[
  {
    "molecule": "Cc1nc(-c2cnn(C)c2COC(=O)N(C)C2CCOCC2)ccc1O[C@H]1CCC[C@H](C(=O)O)C1",
    "pIC50": "5.00 to 6.52"
  },
  {
    "molecule": "Cc1nc(-c2noc(C)c2COC(=O)N(C)C2CCCC2)ccc1O[C@H]1CCC[C@H](C(=O)O)C1 (racemic)",
    "pIC50": "> 7.30"
  },
  {
    "molecule": "Cc1nsc(-c2ccc(O[C@H]3CCC[C@H](C(=O)O)C3)c(C(F)(F)F)n2)c1COC(=O)N(C)C1CCCC1 (racemic)",
    "pIC50": "> 7.30"
  },
  {
    "molecule": "CN(C(=O)OCc1c(-c2ccc(O[C@H]3CCC[C@H](C(=O)O)C3)c(F)c2)ncn1C)C1CCCC1 (racemic)",
    "pIC50": "6.52 to 7.30"
  },
  {
    "molecule": "Cc1ccn(-c2ccc(O[C@H]3CCC[C@H](C(=O)O)C3)cc2)c1COC(=O)N(C)C1CCCC1 (racemic)",
    "pIC50": "> 7.30"
  },
  {
    "molecule": "CN(C(=O)OCc1c(-c2ccc(O[C@H]3CCC[C@H](C(=O)O)C3)c(F)n2)cnn1C)C1CCCC1 (racemic)",
    "pIC50": "> 7.30"
  },
  {
    "molecule": "Cc1nsc(-c2ccc(O[C@H]3CCC[C@H](C(=O)O)C3)cc2)c1COC(=O)N(C)C1CCCC1 (racemic)",
    "pIC50": "> 7.30"
  },
  {
    "molecule": "CN(C(=O)OCc1ccccc1-c1ccc(O[C@H]2CCC[C@H](C(=O)O)C2)cc1)C1CCCC1 (racemic)",
    "pIC50": "5.00 to 6.52"
  },
  {
    "molecule": "Cc1nc(-n2cnc(C)c2COC(=O)N(C)C2CCCC2)ccc1O[C@H]1CCC[C@H](C(=O)O)C1 (racemic)",
    "pIC50": "> 7.30"
  },
  {
    "molecule": "Cc1onc(-c2cnc(O[C@H]3CCC[C@H](C(=O)O)C3)cn2)c1COC(=O)N(C)C1CCCC1 (racemic)",
    "pIC50": "> 7.30"
  },
  {
    "molecule": "Cc1nc(-c2c(C(F)(F)F)nn(C)c2COC(=O)N(C)C2CCCC2)ccc1O[C@H]1CCC[C@H](C(=O)O)C1 (racemic) [Compound 85]",
    "pIC50": "6.52 to 7.30"
  },
  {
    "molecule": "Cc1noc(-c2ccc(O[C@H]3CCC[C@H](C(=O)O)C3)cn2)c1COC(=O)N(C)C1CC1 (racemic)",
    "pIC50": "5.00 to 6.52"
  },
  {
    "molecule": "CN(C(=O)OCc1c(-c2ccc(O[C@H]3CCC[C@H](C(=O)O)C3)cc2)ncn1C)C1CCCC1 (racemic)",
    "pIC50": "5.00 to 6.52"
  },
  {
    "molecule": "Cc1onc(-c2ccc(O[C@H]3CCC[C@H](C(=O)O)C3)cc2)c1COC(=O)N(C)C1CCCC1 (racemic)",
    "pIC50": "> 7.30"
  },
  {
    "molecule": "Cc1nc(-c2cnn(C)c2COC(=O)N(C)C2CCOC2)ccc1O[C@H]1CCC[C@H](C(=O)O)C1 (mixture of isomers)",
    "pIC50": "5.00 to 6.52"
  },
  {
    "molecule": "CN(C(=O)OCc1oncc1-c1ccc(O[C@H]2CCC[C@H](C(=O)O)C2)cc1)C1CCCC1 (racemic)",
    "pIC50": "5.00 to 6.52"
  },
  {
    "molecule": "CN(Cc1ccccc1)C(=O)OCc1oncc1-c1ccc(O[C@H]2CCC[C@H](C(=O)O)C2)cc1 (racemic)",
    "pIC50": "5.00 to 6.52"
  },
  {
    "molecule": "Cc1nc(-c2cnn(C)c2COC(=O)N2CC3CCC2CO3)ccc1O[C@H]1CCC[C@H](C(=O)O)C1 (mixture of isomers)",
    "pIC50": "5.00 to 6.52"
  },
  {
    "molecule": "Cc1nc(-c2coc(C)c2COC(=O)N(C)C2CCCC2)ccc1O[C@H]1CCC[C@H](C(=O)O)C1 (racemic)",
    "pIC50": "> 7.30"
  },
  {
    "molecule": "CN(C(=O)OCc1c(-c2ccc(O[C@H]3CCC[C@H](C(=O)O)C3)c(F)c2)cnn1C)C1CCCC1 (racemic)",
    "pIC50": "> 7.30"
  },
  {
    "molecule": "CN(C(=O)OCc1c(-c2ccc(O[C@H]3CCC[C@H](C(=O)O)C3)c(C(F)(F)F)n2)cnn1C)C1CCCC1 (racemic)",
    "pIC50": "6.52 to 7.30"
  },
  {
    "molecule": "CN(C(=O)OCc1c(-c2cnc(O[C@H]3CCC[C@H](C(=O)O)C3)c(Cl)n2)cnn1C)C1CCCC1",
    "pIC50": "> 7.30"
  },
  {
    "molecule": "Cc1nc(-c2ncn(C)c2COC(=O)N(C)C2CCCC2)ccc1O[C@H]1CCC[C@H](C(=O)O)C1 (racemic)",
    "pIC50": "6.52 to 7.30"
  },
  {
    "molecule": "Cc1csc(-c2ccc(O[C@H]3CCC[C@H](C(=O)O)C3)c(C)n2)c1COC(=O)N(C)C1CCCC1 (racemic)",
    "pIC50": "> 7.30"
  },
  {
    "molecule": "COc1nn(C)c(COC(=O)N(C)C2CCCC2)c1-c1ccc(O[C@H]2CCC[C@H](C(=O)O)C2)c(C)n1 (racemic)",
    "pIC50": "6.52 to 7.30"
  },
  {
    "molecule": "COc1nc(-c2cnn(C)c2COC(=O)N(C)C2CCCC2)ccc1O[C@H]1CCC[C@H](C(=O)O)C1 (racemic)",
    "pIC50": "> 7.30"
  },
  {
    "molecule": "Cc1noc(-c2ccc(O[C@H]3CCC[C@H](C(=O)O)C3)c(C(F)(F)F)n2)c1COC(=O)N(C)C1CCCC1",
    "pIC50": "> 7.30"
  }
]

The measurements presented in this section are drawn from patent US12377083B2.
